molecular target: late INa (Canis lupus familiaris); test: Late INa, perforated patch voltage clamp in isolated canine left ventricular myocytes; assay type: cell-based; conditions: 500 ms pulses to −30 mV at 1 Hz, read-out: Half-inhibition of late INa
parameter: IC50 (µM)
One number for each entry, in µM.

## Input Notebook: pull reported IC50 for late INa (Canis lupus familiaris), entry COc1ccccc1OCC(O)CN1CCN(CC(=O)Nc2c(C)cccc2C)CC1 (racemic) [ranolazine]
## Output 21

---

target: late INa (Canis lupus familiaris, UniProt Q865W3); test: Late INa during action potential voltage clamp in canine midmyocardial myocytes; format: cell-based; conditions: BCL 2000 ms, first value (plateau, 20 mV), read-out: Half-inhibition of late INa
Sequence (Q865W3 1-2013): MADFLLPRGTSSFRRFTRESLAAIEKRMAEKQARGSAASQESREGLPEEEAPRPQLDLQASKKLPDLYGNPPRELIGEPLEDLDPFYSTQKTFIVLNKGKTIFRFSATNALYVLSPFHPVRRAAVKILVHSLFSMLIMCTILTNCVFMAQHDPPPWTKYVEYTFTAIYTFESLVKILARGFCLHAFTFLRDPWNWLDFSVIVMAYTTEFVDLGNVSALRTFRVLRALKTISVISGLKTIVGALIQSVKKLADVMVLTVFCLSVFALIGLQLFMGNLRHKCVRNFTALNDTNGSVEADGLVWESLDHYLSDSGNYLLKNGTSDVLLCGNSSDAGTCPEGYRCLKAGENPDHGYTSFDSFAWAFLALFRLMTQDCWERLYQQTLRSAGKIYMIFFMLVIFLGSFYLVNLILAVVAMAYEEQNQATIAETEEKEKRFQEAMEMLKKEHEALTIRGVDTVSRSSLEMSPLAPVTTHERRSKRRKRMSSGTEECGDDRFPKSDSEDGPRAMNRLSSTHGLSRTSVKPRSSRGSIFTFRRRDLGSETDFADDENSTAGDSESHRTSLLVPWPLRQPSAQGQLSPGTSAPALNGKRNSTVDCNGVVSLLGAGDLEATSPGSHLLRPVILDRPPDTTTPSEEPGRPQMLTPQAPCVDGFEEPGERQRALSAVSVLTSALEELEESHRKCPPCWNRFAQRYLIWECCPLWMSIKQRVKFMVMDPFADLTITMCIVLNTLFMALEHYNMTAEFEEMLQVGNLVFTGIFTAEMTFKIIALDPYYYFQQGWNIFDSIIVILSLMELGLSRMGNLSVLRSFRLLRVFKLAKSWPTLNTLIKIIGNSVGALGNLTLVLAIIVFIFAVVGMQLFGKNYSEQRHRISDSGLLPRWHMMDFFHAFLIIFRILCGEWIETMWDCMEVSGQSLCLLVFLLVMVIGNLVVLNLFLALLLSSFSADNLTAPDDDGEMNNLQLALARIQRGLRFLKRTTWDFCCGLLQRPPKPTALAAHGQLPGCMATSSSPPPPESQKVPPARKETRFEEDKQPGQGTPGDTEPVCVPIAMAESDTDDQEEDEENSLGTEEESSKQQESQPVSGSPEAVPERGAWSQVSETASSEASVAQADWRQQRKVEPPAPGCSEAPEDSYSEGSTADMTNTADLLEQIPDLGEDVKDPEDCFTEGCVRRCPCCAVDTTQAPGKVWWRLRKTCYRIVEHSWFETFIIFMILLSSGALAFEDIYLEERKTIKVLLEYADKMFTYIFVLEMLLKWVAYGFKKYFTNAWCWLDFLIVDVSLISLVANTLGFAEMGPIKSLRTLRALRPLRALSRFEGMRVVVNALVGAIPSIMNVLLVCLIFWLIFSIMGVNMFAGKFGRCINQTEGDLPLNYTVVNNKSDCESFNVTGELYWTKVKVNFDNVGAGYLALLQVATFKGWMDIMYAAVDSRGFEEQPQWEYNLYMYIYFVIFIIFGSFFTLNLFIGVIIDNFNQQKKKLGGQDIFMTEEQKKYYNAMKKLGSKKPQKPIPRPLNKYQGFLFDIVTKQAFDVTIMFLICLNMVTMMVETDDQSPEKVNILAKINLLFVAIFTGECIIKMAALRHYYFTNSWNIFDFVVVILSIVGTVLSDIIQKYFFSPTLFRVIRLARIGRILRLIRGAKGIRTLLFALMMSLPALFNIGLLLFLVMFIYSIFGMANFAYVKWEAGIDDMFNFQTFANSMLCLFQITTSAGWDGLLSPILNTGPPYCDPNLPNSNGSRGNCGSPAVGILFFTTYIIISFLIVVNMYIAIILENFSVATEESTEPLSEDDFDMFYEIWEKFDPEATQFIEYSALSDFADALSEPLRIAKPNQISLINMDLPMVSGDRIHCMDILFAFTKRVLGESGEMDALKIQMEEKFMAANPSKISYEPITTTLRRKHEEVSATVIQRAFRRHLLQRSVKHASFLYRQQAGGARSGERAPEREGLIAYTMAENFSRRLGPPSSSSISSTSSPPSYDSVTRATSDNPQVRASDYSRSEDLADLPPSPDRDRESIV
parameter: IC50
Number first, unit second.

## Input May I ask what IC50 has been recorded for COc1ccccc1OCC(O)CN1CCN(CC(=O)Nc2c(C)cccc2C)CC1 (racemic) ?
## Output 5.9 µM

---

target: rapidly activating component of the delayed rectifier current (IKr) (Canis lupus familiaris, UniProt Q9TSZ3); construct: Myocytes were isolated by enzymatic dissociation from a wedge-shaped section of the left ventricular free wall; endogenous in cells; assay: Whole cell voltage clamp of IKr tail current in isolated canine left ventricular myocytes; conditions: tail current at −40 mV after 250 msec pulse to 30 mV; read-out: IC50 for inhibition of IKr tail current
Sequence (Q9TSZ3 whole entry): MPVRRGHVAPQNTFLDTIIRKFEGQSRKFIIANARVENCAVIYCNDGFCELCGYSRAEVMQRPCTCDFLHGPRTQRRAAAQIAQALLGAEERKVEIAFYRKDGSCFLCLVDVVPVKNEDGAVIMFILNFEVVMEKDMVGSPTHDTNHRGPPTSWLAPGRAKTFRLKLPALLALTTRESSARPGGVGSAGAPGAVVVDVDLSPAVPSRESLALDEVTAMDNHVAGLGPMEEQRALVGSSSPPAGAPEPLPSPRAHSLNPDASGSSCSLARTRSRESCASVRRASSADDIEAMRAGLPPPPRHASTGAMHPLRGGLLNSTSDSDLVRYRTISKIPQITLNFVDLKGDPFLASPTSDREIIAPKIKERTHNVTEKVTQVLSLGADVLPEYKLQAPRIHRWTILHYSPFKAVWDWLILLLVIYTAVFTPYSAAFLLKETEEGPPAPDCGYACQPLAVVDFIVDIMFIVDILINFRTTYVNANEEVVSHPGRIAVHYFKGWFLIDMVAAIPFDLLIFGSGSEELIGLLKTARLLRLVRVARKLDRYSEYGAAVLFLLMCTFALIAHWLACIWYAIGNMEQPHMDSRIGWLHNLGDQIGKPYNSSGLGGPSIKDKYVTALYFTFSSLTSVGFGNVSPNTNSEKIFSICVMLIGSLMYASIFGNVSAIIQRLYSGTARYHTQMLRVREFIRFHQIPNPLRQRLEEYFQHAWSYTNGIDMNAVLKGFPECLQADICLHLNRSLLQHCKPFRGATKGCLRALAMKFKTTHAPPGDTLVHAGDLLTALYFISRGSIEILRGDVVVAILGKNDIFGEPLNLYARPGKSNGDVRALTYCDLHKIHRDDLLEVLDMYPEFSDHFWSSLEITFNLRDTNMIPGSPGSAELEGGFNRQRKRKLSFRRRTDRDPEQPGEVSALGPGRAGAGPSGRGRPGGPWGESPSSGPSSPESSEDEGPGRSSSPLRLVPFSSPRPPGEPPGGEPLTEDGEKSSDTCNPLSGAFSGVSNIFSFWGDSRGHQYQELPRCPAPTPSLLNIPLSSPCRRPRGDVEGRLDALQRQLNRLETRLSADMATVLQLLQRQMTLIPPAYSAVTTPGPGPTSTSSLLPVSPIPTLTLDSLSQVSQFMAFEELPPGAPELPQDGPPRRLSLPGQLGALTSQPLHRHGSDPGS
parameter: pIC50
Numbers only, as −log10 of the molar value.

## Input May I ask what pIC50 has been recorded for COc1ccccc1OCC(O)CN1CCN(CC(=O)Nc2c(C)cccc2C)CC1 (racemic) [ranolazine] ?
## Output 4.94

---

molecular target: late INa (Canis lupus familiaris, UniProt Q865W3); assay: Late INa during action potential voltage clamp in canine midmyocardial myocytes; assay type: cell-based; conditions: BCL 2000 ms, second value (−28 mV), read-out: Half-inhibition of late INa
parameter: pIC50
One number for each entry, as −log10 of the molar value.

## Input Notebook: pull reported pIC50 for late INa (Canis lupus familiaris, UniProt Q865W3), entry COc1ccccc1OCC(O)CN1CCN(CC(=O)Nc2c(C)cccc2C)CC1 (racemic)
## Output 4.68

---

molecular target: late INa (Canis lupus familiaris, UniProt Q865W3); assay: Late INa during action potential voltage clamp in canine midmyocardial myocytes; type: cell-based; settings: basic cycle length 2000 ms, read-out: Half-inhibition of INa,late
parameter: IC50 (µM)
Answers are plain numbers, in µM.

## Input May I ask what IC50 has been recorded for COc1ccccc1OCC(O)CN1CCN(CC(=O)Nc2c(C)cccc2C)CC1 (racemic) ?
## Output 20.8

---

biological target: late INa (Canis lupus familiaris, UniProt Q865W3); assay: Late INa during action potential voltage clamp in canine midmyocardial myocytes; assay type: cell-based; conditions: basic cycle length 300 ms, read-out: Half-inhibition of INa,late
parameter: pIC50
Answers are plain numbers, as −log10 of the molar value.

## Input May I ask what pIC50 has been recorded for COc1ccccc1OCC(O)CN1CCN(CC(=O)Nc2c(C)cccc2C)CC1 (racemic) ?
## Output 4.94
